# system: Hypoxia-inducible factor 1-alpha (Homo sapiens) (UniProt Q16665)
# Sequence (Q16665 whole entry, looked up): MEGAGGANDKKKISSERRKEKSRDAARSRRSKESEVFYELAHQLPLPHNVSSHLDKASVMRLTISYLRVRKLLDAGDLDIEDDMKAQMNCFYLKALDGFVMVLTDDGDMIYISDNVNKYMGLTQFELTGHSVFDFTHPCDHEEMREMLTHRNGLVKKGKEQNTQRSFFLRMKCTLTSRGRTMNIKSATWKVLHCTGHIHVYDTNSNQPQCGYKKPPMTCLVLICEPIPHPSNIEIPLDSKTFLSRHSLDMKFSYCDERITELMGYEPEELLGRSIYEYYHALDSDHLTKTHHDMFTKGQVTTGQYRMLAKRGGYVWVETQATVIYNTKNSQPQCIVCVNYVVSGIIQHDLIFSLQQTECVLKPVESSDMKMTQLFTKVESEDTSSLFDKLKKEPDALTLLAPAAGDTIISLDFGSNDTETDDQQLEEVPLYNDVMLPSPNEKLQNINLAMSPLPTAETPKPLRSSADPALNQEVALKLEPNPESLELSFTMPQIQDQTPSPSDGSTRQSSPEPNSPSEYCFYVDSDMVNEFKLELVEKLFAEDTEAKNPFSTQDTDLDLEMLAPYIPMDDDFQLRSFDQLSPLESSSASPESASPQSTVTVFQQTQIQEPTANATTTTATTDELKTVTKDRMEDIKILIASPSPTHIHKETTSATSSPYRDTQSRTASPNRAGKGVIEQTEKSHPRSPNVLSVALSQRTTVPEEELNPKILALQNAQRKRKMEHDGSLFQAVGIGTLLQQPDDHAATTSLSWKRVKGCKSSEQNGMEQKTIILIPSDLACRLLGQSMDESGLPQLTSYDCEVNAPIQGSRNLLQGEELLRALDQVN
# assay: activators of HIF1alpha nuclear accumulation, confirmation, imaging, fluorescence, U2OS GFP-HIF1alpha (AID 434951)
# reported_conditions: U2OS GFP-HIF1alpha nuclear intensity, high-content imaging
Calls of active or inactive are those of the source.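 How the source made its calls: active means a fitted half-maximal concentration EC50 for the rise in nuclear signal no higher than ten times the top dose tested; inconclusive means flat fit with activity between 30% and 70%, or unusable fit; inactive means EC50 beyond ten times the top dose.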
Possible outcomes: Y for active, N for inactive

>  <compound>
CN(C)c1ccc(N=Nc2ccc(S(N)(=O)=O)cc2)cc1

>  <group_label>
N

$$$$
>  <compound>
COc1cccc(C(=O)CN2C(=O)C(C)(C)Oc3ccc(C(=O)N4CCOCC4)cc32)c1

>  <group_label>
N

$$$$
>  <compound>
COc1ccc(N2CCN(C(=O)C3COc4ccccc4O3)CC2)cc1 (centres undefined)

>  <group_label>
N

$$$$
>  <compound>
COc1cccc(/C=N/NC(=O)c2[nH]nc3c2CCc2ccccc2-3)c1O

>  <group_label>
Y

$$$$
>  <compound>
c1ccc(-c2nnc3sc(-c4cc5ccccc5o4)nn23)cc1

>  <group_label>
N

$$$$
>  <compound>
COc1ccc(CCNC(=O)c2nnn(CC(=O)Nc3c(C)cc(C)cc3C)c2N)cc1OC

>  <group_label>
N

$$$$
>  <compound>
COc1cc(SC)ccc1C(=O)Nc1ccc(C)cc1C

>  <group_label>
N

$$$$
>  <compound>
CC1CN(c2nc3ccccn3c(=O)c2/C=C(\C#N)C(=O)N2CCOCC2)CC(C)O1 (centres undefined)

>  <group_label>
N

$$$$
>  <compound>
CCCCNc1nc(N)nc(-c2cc(Cl)ccc2O)n1

>  <group_label>
N

$$$$
>  <compound>
COc1ccc(OC)c(CNC(=O)C2CCCN(S(=O)(=O)N3CCC(C)CC3)C2)c1 (centres undefined)

>  <group_label>
N

$$$$
>  <compound>
COC(=O)[C@H](CCSC)NC(=O)c1cccnc1SC

>  <group_label>
N

$$$$
>  <compound>
O=C(COC(=O)c1cccc(S(=O)(=O)N2CCOCC2)c1)Nc1ncc(C(F)(F)F)cc1Cl

>  <group_label>
N

$$$$
>  <compound>
Brc1ccc(N/N=C(/N=Nc2nn[nH]n2)c2ccccc2)cc1

>  <group_label>
Y

$$$$
>  <compound>
Nc1ccnn1-c1ccccc1

>  <group_label>
N

$$$$
